- Target: recombinant human BAFF (human, UniProt Q9Y275 134-285)
- Protocol Summary: cell-based or functional assay
Endpoint: BAFF IC50 (ΔWT)

Exam item: Record request: BAFF IC50 (ΔWT) value, item 13 TACI CRD2-Fc (Fc fusion) SLSCRKEQGKFYDHLLRDCISCASICGQHPKQCAYFCENKLRSGSGGGGSEPKSSDKTHTCPPCPAPEAEGAPSVFLFPPKPKDTLMISRTPEVTCVVVDVSHEDPEVKFNWYVDGVEVHNAKTKPREEQYNSTYRVVSVLTVLHQDWLNGKEYKCKVSNKALPAPIEKTISKAKGQPREPQVYTLPPSRDELTKNQVSLTCLVKGFYPSDIAVEWESNGQPENNYKTTPPVLDSDGSFFLYSKLTVDKSRWQQGNVFSCSVMHEALHNHYTQKSLSLSPG
Marked response: 1 fold of WT TACI (68-110)-Fc
